Reference source for all entries: the supplement of paper PMC9844399

# Tested on: HeLa;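 note: Hoechst-stained nuclei counted by automated confocal imaging of four fields per well in 384-well plates, with the robust Z-score based on the per-plate DMSO median and robust SD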
# Protocol Notes: nuclear count per well, robust Z-score vs DMSO; higher = more cells (less toxicity)
# Condition Description: 10 µM; 6 h
Listed next: entries and their corresponding nuclear count per well.
Property Name: nuclear count per well

{"Compound": "CO[C@H]1/C=C/O[C@@]2(C)Oc3c(C)c(O)c4c(c3C2=O)C2=NC3(CCN(CC(C)C)CC3)NC2=C(NC(=O)/C(C)=C\\C=C\\[C@H](C)[C@H](O)[C@@H](C)[C@@H](O)[C@@H](C)[C@H](OC(C)=O)[C@@H]1C)C4=O", "Experimental Target": "HeLa", "Numeric Result": 0.397}
{"Compound": "CC(=O)N[C@@H](CC(C)C)C(=O)N[C@@H](CC(C)C)C(=O)N[C@H](C=O)CCCNC(=N)N [Leupeptin]", "Experimental Target": "HeLa", "Numeric Result": -0.325}
{"Compound": "Cc1ccsc1C(=CCCN1CCC[C@@H](C(=O)O)C1)c1sccc1C", "Experimental Target": "HeLa", "Numeric Result": 1.09}
{"Compound": "NS(=O)(=O)c1cc2c(cc1C(F)(F)F)NC(Cc1ccccc1)NS2(=O)=O (configuration not stated) [Bendroflumethiazide]", "Experimental Target": "HeLa", "Numeric Result": 1.08}
{"Compound": "Nc1ncnc2c1ncn2[C@@H]1O[C@H](CO)[C@@H](O)[C@H]1O", "Experimental Target": "HeLa", "Numeric Result": 0.725}
{"Compound": "Nc1cccc2c1CN(C1CCC(=O)NC1=O)C2=O (configuration not stated) [Lenalidomide]", "Experimental Target": "HeLa", "Numeric Result": -0.365}
{"Compound": "CCCCCCCCCCCCC/C=C/[C@@H](O)[C@H](CO)NCCCCCCCC", "Experimental Target": "HeLa", "Numeric Result": 0.668}
{"Compound": "O=C(NCCCNc1nc(Nc2cccc(CN3CCOCC3)c2)ncc1C1CC1)C1CCC1", "Experimental Target": "HeLa", "Numeric Result": -2.72}
{"Compound": "OC(CCN1CCCCC1)(c1ccccc1)C1CCCCC1 (configuration not stated)", "Experimental Target": "HeLa", "Numeric Result": -0.452}
{"Compound": "CCN(CC)CCOC(=O)C1(C2CCCCC2)CCCCC1", "Experimental Target": "HeLa", "Numeric Result": 0.0346}
{"Compound": "CC(=O)OCOC(=O)CN(CC(=O)OCOC(C)=O)c1ccccc1OCCOc1ccccc1N(CC(=O)OCOC(C)=O)CC(=O)OCOC(C)=O", "Experimental Target": "HeLa", "Numeric Result": 0.0201}
{"Compound": "C[C@H]1c2cccc(O)c2C(=O)C2=C(O)[C@]3(O)C(=O)C(C(N)=O)=C(O)[C@@H](N(C)C)[C@@H]3[C@@H](O)[C@@H]21 [Doxycycline Monohydrate]", "Experimental Target": "HeLa", "Numeric Result": -0.308}
{"Compound": "C#C[C@]1(O)CC[C@H]2[C@@H]3CCC4=CCCC[C@@H]4[C@H]3C(=C)C[C@@]21CC", "Experimental Target": "HeLa", "Numeric Result": 0.13}
{"Compound": "CCN(CC)CCNC(=O)c1ccc(N)cc1", "Experimental Target": "HeLa", "Numeric Result": 0.801}
{"Compound": "C/C=C/C=C/C(=O)O", "Experimental Target": "HeLa", "Numeric Result": 0.785}
{"Compound": "OC[C@H]1O[C@H](O[C@H]2O[C@H](CO)[C@@H](O)[C@H](O)[C@H]2O)[C@H](O)[C@@H](O)[C@@H]1O", "Experimental Target": "HeLa", "Numeric Result": 0.203}
{"Compound": "CC(=O)O[C@H]1C[C@@]2(C)[C@@H](C[C@@H](O)[C@H]3[C@@]4(C)CC[C@@H](O)[C@@H](C)[C@@H]4CC[C@@]32C)/C1=C(\\CCC=C(C)C)C(=O)O", "Experimental Target": "HeLa", "Numeric Result": 0.193}
